- TARGET: T1, ECF14_3200
- T1 chain: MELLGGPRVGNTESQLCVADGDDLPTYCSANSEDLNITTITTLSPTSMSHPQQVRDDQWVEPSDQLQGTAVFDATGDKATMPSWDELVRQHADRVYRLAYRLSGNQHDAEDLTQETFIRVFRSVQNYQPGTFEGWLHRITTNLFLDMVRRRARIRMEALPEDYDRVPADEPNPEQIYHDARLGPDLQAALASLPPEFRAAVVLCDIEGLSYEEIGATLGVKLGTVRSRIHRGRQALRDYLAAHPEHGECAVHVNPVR
PARAMETER MEASURED: fold repression
// no unit, no text: just the number

Annotate the binder AS20_992 (protein) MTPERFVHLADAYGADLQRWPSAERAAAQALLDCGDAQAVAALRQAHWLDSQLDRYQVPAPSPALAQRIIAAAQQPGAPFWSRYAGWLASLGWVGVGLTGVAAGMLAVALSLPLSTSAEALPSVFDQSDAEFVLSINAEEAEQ with its measured fold repression. 2.04

Return value of fold repression for input AS27_4265 (protein) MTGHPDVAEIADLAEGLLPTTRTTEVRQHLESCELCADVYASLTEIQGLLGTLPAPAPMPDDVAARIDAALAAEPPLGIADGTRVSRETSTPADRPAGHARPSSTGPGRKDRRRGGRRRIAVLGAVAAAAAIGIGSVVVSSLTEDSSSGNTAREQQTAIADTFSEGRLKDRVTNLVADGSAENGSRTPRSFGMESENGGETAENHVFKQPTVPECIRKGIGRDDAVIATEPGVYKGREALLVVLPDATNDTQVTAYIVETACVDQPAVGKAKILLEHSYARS , no commentary. 4.49

Give the reported value of fold repression for this record: AS33_375 (protein) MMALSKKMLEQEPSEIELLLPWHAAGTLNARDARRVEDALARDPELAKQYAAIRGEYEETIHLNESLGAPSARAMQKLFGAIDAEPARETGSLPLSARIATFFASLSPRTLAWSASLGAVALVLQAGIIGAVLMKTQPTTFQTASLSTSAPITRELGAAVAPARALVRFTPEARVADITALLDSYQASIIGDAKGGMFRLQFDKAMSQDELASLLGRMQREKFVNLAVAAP 17.8

Please supply the value of reported fold repression for the item AS15_524 (protein) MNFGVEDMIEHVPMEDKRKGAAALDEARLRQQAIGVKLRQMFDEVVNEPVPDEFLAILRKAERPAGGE 12.9

Report measured fold repression; entry is AS30_35 (protein) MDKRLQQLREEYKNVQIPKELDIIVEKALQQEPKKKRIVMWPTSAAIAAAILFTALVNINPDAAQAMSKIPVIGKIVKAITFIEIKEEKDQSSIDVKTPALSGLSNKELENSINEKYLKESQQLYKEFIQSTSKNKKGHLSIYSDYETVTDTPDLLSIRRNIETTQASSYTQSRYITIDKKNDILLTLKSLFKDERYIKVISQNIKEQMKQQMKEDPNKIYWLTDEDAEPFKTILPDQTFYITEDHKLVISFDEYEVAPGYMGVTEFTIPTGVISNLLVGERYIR 1.91

Identify the reported fold repression for the following entry. AS31_34 (protein) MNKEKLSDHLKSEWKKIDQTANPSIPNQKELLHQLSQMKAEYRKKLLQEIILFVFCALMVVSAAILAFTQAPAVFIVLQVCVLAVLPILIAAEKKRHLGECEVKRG 2.7

Give a short answer stating reported fold repression for AS03_1244 (protein) MKQFDPDVNIRPKEDSIRHYSVPDDYFASFTDKLMAQIPAVKEENTVVVPSVALWPKLRPLLYLAASFLLMIGMFKAFSLFGVGSDTGRTTSTSAGLVALDHGDTRWSEDTDYRDFLHDNCAETVSDEWVLTDFSE . 2.19

Cited source: paper PMC3817407
